Listed here are compounds together with their documented GI50.
- System: MDA-MB-231
- PROCEDURE_SUMMARY: NCI tumour cell line growth inhibition, 48 h
Calls of active or inactive are those of the source. No stated cut-off is given here; in the data, active = GI50 up to about 1.1 µM and inactive = higher.
MEASURED_PROPERTY: GI50

COMPOUND: CCN(CC)c1ccc(/C=C2/C[N+](C)(C)C/C(=C/c3ccc(N(CC)CC)cc3)C2=O)cc1
RESULT: 2.58 µM (inactive)
//
COMPOUND: O=CCOCc1cc2c(cc1Br)OCO2
RESULT: 19.7 µM (inactive)
//
COMPOUND: CN1CCN(C2=C(Cl)C3(OCCS3)C(F)(F)C2(F)F)CC1 (stereo not given)
RESULT: 82 µM (inactive)
//
COMPOUND: CC1(c2nc3ccccc3[nH]2)CCC(C#N)C(C)(C)O1 (stereo not given)
RESULT: > 100 µM (inactive)
//
COMPOUND: CN(Cc1cnc2nc(N)nc(N)c2n1)c1ccc(C(=O)N[C@@H](CCS(=O)(=O)O)C(=O)O)cc1
RESULT: > 100 µM (inactive)
//
COMPOUND: CCN(CC)CCOc1ccc(N2C(=O)c3cccc4cc([N+](=O)[O-])cc(c34)C2=O)cc1
RESULT: 18.8 µM (inactive)
//
COMPOUND: CCCCCCCCCCCCCCCCOP(=O)(O)OP(=O)(O)OCC1OC(n2ccc(N)nc2=O)CC1O (stereo not given)
RESULT: > 100 µM (inactive)
//
COMPOUND: COc1ccc(C(C2C(=O)N(C)C(=O)N(C)C2=O)C(F)(F)C(=O)N(C)C)cc1 (stereo not given)
RESULT: > 100 µM (inactive)
//
COMPOUND: COc1ccc([C@@]23CCC(=O)C[C@@H]2N(C)CC3)cc1OC
RESULT: > 100 µM (inactive)
//
COMPOUND: COc1ccc(-c2c(C#N)c(O)n(C3OC(CO)C(O)C(O)C3O)c(=S)c2C#N)cc1 (stereo not given)
RESULT: > 100 µM (inactive)

###

- System: OVCAR-4
- PROCEDURE_SUMMARY: NCI tumour cell line growth inhibition, 48 h
Active and inactive are the calls of the source. Rule as the data show it: active = GI50 up to about 1.1 µM and inactive = higher.
Listed here are compounds together with their documented GI50.

COMPOUND: COc1ccc(/C=N/n2c(C)n[nH]c2=O)c(OC)c1
SUBJECT_OF_TEST: OVCAR-4
GI50: > 100 µM (inactive)

COMPOUND: O=C(CCc1ccccc1)On1nnc2ccccc2c1=O
SUBJECT_OF_TEST: OVCAR-4
GI50: > 100 µM (inactive)

COMPOUND: S=P1(N2CCCCC2)Oc2ccc3ccccc3c2-c2c(ccc3ccccc23)O1
SUBJECT_OF_TEST: OVCAR-4
GI50: 27.5 µM (inactive)

COMPOUND: CCOC(=O)c1csc(NC(=O)CCN2CCCCC2)n1
SUBJECT_OF_TEST: OVCAR-4
GI50: > 100 µM (inactive)

COMPOUND: C=C1CCC2[C@@H](CCC3[C@]2(C)CCC[C@]3(C)C(=O)OC)C1CCO (stereo partly specified)
SUBJECT_OF_TEST: OVCAR-4
GI50: 12.8 µM (inactive)

COMPOUND: COc1ccc(-n2c(C)nc3ccc(NC4OCC(O)C(O)C4O)cc3c2=O)cc1 (stereo unspecified)
SUBJECT_OF_TEST: OVCAR-4
GI50: > 100 µM (inactive)
